- measured target: soluble FGFR2c receptor protein (human, UniProt P21802 148-377)
- Sequence (P21802 148-377): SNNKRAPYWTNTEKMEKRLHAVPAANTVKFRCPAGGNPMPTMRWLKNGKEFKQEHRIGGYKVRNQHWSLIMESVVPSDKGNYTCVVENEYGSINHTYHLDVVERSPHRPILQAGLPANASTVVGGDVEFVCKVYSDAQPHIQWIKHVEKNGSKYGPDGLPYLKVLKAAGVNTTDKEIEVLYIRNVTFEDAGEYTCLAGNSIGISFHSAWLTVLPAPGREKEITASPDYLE
- method: BLI Octet RED96, antibody on anti-hIgG Fc tip
Assign class by koff: not lower than 0.002 s⁻¹ means y; lower than 0.002 s⁻¹ means n.

Some entries whose results are on file:
# input Form field: koff at least 0.002 s⁻¹? Entry: Vk9 combined with the VH of Ab15 (antibody, V domains shown, captured on anti-human IgG Fc tips) VH: EVQLLESGGGVVQPGRSLRLSCAASGFTFSSYAMHWVRQAPGKGLEWVAVISYDGSNKYYADSVKGRFTISRDNSKNTLSLQMNSLRVEDTAIYYCVRGAGRGYTYGPDGFDIWGQGTMVTVSS VL: DIVMTQSPDSLAVSLGERATINCKSSQSLLHSDGKTYVYWYQQKPGQPPKLLIYELSNRFSGVPDRFSGSGSGTDFTLTISSLQAEDVAVYYCMQYIEAPLTFGGGTKVEIK
# output n

# input Is the recorded value of koff equal to or greater than 0.002 s⁻¹ for this binder? Vk10 combined with the VH of Ab15 (antibody, V domains shown, captured on anti-human IgG Fc tips) VH: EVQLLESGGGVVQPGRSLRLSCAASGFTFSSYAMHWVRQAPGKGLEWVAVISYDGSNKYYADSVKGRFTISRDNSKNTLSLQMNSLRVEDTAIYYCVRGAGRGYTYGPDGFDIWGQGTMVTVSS VL: DIVMTQSPDSLAVSLGERATISCTSSRSLLHSDGKTYVYWYQQKPGQPPKLLIYELSNRFSGVPDRFSGSGSRTDFTLTISSLQAEDVAVYYCMQYIEAPLTFGGGTKVEIK
# output n

# input Check if koff >= 0.002 s⁻¹ (inclusive). Item: Ab19 (antibody, human IgG2, kappa, V domains shown, format in the assays not spelled out) VH: EVQLLESGGGVVQPGRSLRLSCAASGFTFSSYAMHWVRQAPGKGLEWVAVISYDGSNKYYADSVKGRFTISRDNSKNTLSLQMNSLRVEDTAIYYCVRGAGRGFTLGPDGFDIWGQGTMVTVSS VL: DIVMTQTPLSLSVTPGQPASISCKSSRSLLHSDGKTYVYWYVQKSGQPPQLLIYELSNRFSGVPDRFSGSGSRTDFTLKISRVEAEDVGVYYCMQYIEAPLTFGGGTKVEIKR
# output n

# input Check the entry Ab90 (antibody, human IgG2, kappa, V domains shown, format in the assays not spelled out) VH: EVQLLESGGGVVQPGRSLRLSCAASGFTFSSYAMHWVRQAPGKGLEWVAVISYDGSNKYYADSVKGRFTISRDNSKNTLSLQMNSLRVEDTAIYYCVRGAGRGYPYGPDGFDIWGQGTMVTVSS VL: DIVMTQTPLSLSVTPGQPASISCTSSRSLLHSDGKTYVYWYVQKSGQPPQLLIYELSNRFSGVPDRFSGSGSRTDFTLKISRVEAEDVGVYYCMQYVEVPLTFGGGTKVEIKR : does koff equal or exceed 0.002 s⁻¹?
# output n

# input Hi team, for Ab60 (antibody, human IgG2, kappa, V domains shown, format in the assays not spelled out) VH: EVQLLESGGGVVQPGRSLRLSCAASGFDFAGYAMHWVRQAPGKGLEWVAVISYDGSNKYYADSVKGRFTISRDNSKNTLSLQMNSLRVEDTAIYYCVRGAGRGLTYGPDGFDIWGQGTMVTVSS VL: DIVMTQTPLSLSVTPGQPASISCTSSRSLLHSDGKTYVYWYVQKSGQPPQLLIYELSNRFSGVPDRFSGSGSRTDFTLKISRVEAEDVGVYYCMQYIEAPLTFGGGTKVEIKR , is the recorded koff at or above 0.002 s⁻¹?
# output n

# input API: above_or_equal(metric=koff, cutoff=0.002 s⁻¹) for item Ab92 (antibody, human IgG2, kappa, V domains shown, format in the assays not spelled out) VH: EVQLLESGGGVVQPGRSLRLSCAASGFTFSSYAMHWVRQAPGKGLEWVAVISYDGSNKYYADSVKGRFTISRDNSKNTLSLQMNSLRVEDTAIYYCVRGAGHGFPTGPDGFDIWGQGTMVTVSS VL: DIVMTQTPLSLSVTPGQPASISCRSSRSLLHSDGKTYVYWYVQKSGQPPQLLIYELSNRFSGVPDRFSGSGSRTDFTLKISRVEAEDVGVYYCMQYVEAPLTFGGGTKVEIKR
# output n

Attention now turns to another entry.
# input Say whether Vk7 combined with the VH of Ab15 (antibody, V domains shown, captured on anti-human IgG Fc tips) VH: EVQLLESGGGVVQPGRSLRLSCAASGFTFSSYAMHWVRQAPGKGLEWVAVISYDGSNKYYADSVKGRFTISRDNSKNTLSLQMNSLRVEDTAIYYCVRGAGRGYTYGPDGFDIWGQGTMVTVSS VL: DIVMTQSPLSLPVTPGEPASISCKSSQSLLHSDGKTYLYWYLQKPGQPPQLLIYELSNRFSGVPDRFSGSGSGTDFTLKISRVEAEDVGVYYCMQYIEAPLTFGGGTKVEIK shows koff of 0.002 s⁻¹ or more.
# output y
